B1: library; numbered along this chain (parent)
chain: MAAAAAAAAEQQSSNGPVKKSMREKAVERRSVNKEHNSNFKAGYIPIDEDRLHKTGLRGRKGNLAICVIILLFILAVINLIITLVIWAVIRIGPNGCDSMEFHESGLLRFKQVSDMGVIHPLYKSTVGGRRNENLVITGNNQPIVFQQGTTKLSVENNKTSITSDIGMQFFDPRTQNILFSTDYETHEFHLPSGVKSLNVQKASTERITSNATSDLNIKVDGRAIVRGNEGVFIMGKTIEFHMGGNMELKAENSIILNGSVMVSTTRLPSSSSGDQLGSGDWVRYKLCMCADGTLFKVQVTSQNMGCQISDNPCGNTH

Variants of: B1
Assay: SGCB cell-surface expression functional score (HA stain, bin4 vs bin1, normalised to synonymous) (log10 ratio); higher = more cell-surface SGCB (functional)
Property: SGCB cell-surface expression functional score (log10)
One number for each entry.

Example entries and their recorded answers appear below.
# Variant identifier, Numeric value
rows = [
    ("H103L", 0.33),
    ("D281M", 0.67),
    ("N33R", 0.1),
    ("C288S", -0.07),
    ("G129H", -0.43),
]

List SGCB cell-surface expression functional score (log10) for every entry below, keeping the order given.
1. A212F
2. L277F
3. E104T
4. T301V
5. L80G

stdout:
[-0.4, -0.4, 0.51, -0.21, 0.19]

List SGCB cell-surface expression functional score (log10) for every entry below, keeping the order given.
1. P173C
2. S154A

stdout:
1: -0.22; 2: 0.26

List SGCB cell-surface expression functional score (log10) for every entry below, keeping the order given.
1. T317S
2. K219D
3. G228Y
4. P192G
5. L135Q
6. D275F

stdout:
0.15
0.29
-2.12
-0.57
-1.5
-0.57

List SGCB cell-surface expression functional score (log10) for every entry below, keeping the order given.
1. L71W
2. G56K

stdout:
1: 0.61; 2: 0.41

List SGCB cell-surface expression functional score (log10) for every entry below, keeping the order given.
1. S164K
2. E188G

stdout:
-0.97
-0.55
